Test system: human cervical cancer (HeLa)
Assay: Cytotoxicity, MTT assay, HeLa cells
Conditions: Homo sapiens, HeLa, 24 h, read-out: Cytotoxicity (EC50), HeLa
pEC50: −log10 of the molar value.
Listing of recorded pEC50 by entry.

{"columns": ["compound", "qualifying.sign", "pEC50"],
 "data": [
  ["COc1ccc(OC)c2c1C(=O)C1=C(S[C@@H]3O[C@H](CO)[C@@H](O)[C@H](O)[C@H]3O1)C2=O [Compound 17a]", "<", 4.60],
  ["O=C1C2=C(O[C@@H]3[C@@H](O)[C@@H](O)[C@@H](CO)O[C@H]3S2)C(=O)c2c(O)cccc21 [Compound 20b]", "=", 5.33],
  ["O=C1C2=C(S[C@@H]3OC[C@@H](O)[C@H](O)[C@H]3O2)C(=O)c2c(O)cccc21 [Compound 19c]", "=", 5.31],
  ["COc1ccc(OC)c2c1C(=O)C1=C(S[C@@H]3OC[C@H](O)[C@H](O)[C@H]3O1)C2=O [Compound 17d]", "<", 4.60],
  ["COc1c(Cl)c(Cl)c(OC)c2c1C(=O)C1=C(S[C@@H]3O[C@H](CO)[C@@H](O)[C@H](O)[C@H]3O1)C2=O [Compound 18a]", "=", 4.96],
  ["COc1c(Cl)c(Cl)c(OC)c2c1C(=O)C1=C(S[C@@H]3OC[C@H](O)[C@H](O)[C@H]3O1)C2=O [Compound 18d]", "=", 5.06],
  ["O=C1C2=C(O[C@@H]3[C@@H](O)[C@H](O)CO[C@H]3S2)C(=O)c2c(O)cccc21 [Compound 20c]", "=", 5.64],
  ["O=C1C2=C(O[C@@H]3[C@@H](O)[C@@H](O)CO[C@H]3S2)C(=O)c2c(O)cccc21 [Compound 20d]", "=", 6.40],
  ["O=C1C=CC(=O)c2c(O)cccc21 [Juglone, 5-hydroxy-1,4-naphthoquinone, reference compound]", "<", 4.00]
]}

----------
Assay: in vitro
Details: mouse
pEC50: −log10 of the molar value.
recorded.metric: pEC50

{"columns": ["compound", "measured.result"],
 "data": [
  ["O=C1C=CC(=O)c2c(O)cccc21 [Juglone, 5-hydroxy-1,4-naphthoquinone, reference compound]", "< 4.00"]
]}

----------
Test system: mouse neuroblastoma (Neuro 2a)
Assay: Cytotoxicity, MTT assay, Neuro 2a cells
Settings: read-out: Cytotoxicity (EC50), Neuro 2a; MTT reagent, 24 h

{"columns": ["molecule", "measurement.target", "value.unit", "EC50"],
 "data": [
  ["C=C(C)CCCC1(C)OC(=O)C23CCC4C(=CCC5C(C)(C)C(OC6OCC(OS(=O)(=O)O)C(O)C6OC6OC(C)C(OC7OC(CO)C(O)C(OC8OC(CO)C(O)C(OC)C8O)C7O)C(O)C6OC6OCC(O)C(O)C6O)CCC45C)C2(C)CC(=O)C13 (stereo not shown) [Cucumarioside A2-2, reference compound]", "mouse neuroblastoma (Neuro 2a)", "µM", 37.5]
]}

----------
Assay: Cytotoxicity, MTT assay, Jb6 Cl 41-5a normal epithelial cells
Conditions: mouse, Jb6 Cl 41-5a normal epithelial cells
Okay, here is how we bin by EC50 at 24 h: low band (below 700 nM), middle band (700 nM to below 4000 nM), high band (4000 nM or more)

{"columns": ["compound", "cat"],
 "data": [
  ["COc1c(Cl)c(Cl)c(OC)c2c1C(=O)C1=C(S[C@@H]3OC[C@@H](O)[C@H](O)[C@H]3O1)C2=O [Compound 18c]", "middle band"],
  ["COc1c(Cl)c(Cl)c(OC)c2c1C(=O)C1=C(S[C@@H]3O[C@H](CO)[C@@H](O)[C@H](O)[C@H]3O1)C2=O [Compound 18a]", "middle band"],
  ["O=C1C2=C(S[C@@H]3OC[C@@H](O)[C@H](O)[C@H]3O2)C(=O)c2c(O)cccc21 [Compound 19c]", "high band"],
  ["COc1c(Cl)c(Cl)c(OC)c2c1C(=O)C1=C(S[C@@H]3O[C@H](CO)[C@H](O)[C@H](O)[C@H]3O1)C2=O [Compound 18b]", "middle band"],
  ["COc1c(Cl)c(Cl)c(OC)c2c1C(=O)C1=C(S[C@@H]3OC[C@H](O)[C@H](O)[C@H]3O1)C2=O [Compound 18d]", "high band"],
  ["O=C1C2=C(O[C@@H]3[C@@H](O)[C@@H](O)[C@@H](CO)O[C@H]3S2)C(=O)c2c(O)cccc21 [Compound 20b]", "low band"],
  ["COc1ccc(OC)c2c1C(=O)C1=C(S[C@@H]3OC[C@@H](O)[C@H](O)[C@H]3O1)C2=O [Compound 17c]", "high band"],
  ["O=C1C2=C(S[C@@H]3O[C@H](CO)[C@@H](O)[C@H](O)[C@H]3O2)C(=O)c2c(O)cccc21 [Compound 19a]", "high band"],
  ["COc1ccc(OC)c2c1C(=O)C1=C(S[C@@H]3OC[C@H](O)[C@H](O)[C@H]3O1)C2=O [Compound 17d]", "high band"],
  ["COc1ccc(OC)c2c1C(=O)C1=C(S[C@@H]3O[C@H](CO)[C@@H](O)[C@H](O)[C@H]3O1)C2=O [Compound 17a]", "high band"],
  ["O=C1C2=C(O[C@@H]3[C@@H](O)[C@H](O)CO[C@H]3S2)C(=O)c2c(O)cccc21 [Compound 20c]", "low band"],
  ["O=C1C2=C(S[C@@H]3OC[C@H](O)[C@H](O)[C@H]3O2)C(=O)c2c(O)cccc21 [Compound 19d]", "middle band"],
  ["O=C1C2=C(S[C@@H]3O[C@H](CO)[C@H](O)[C@H](O)[C@H]3O2)C(=O)c2c(O)cccc21 [Compound 19b]", "middle band"]
]}

The reported measurements were obtained from paper PMC7463537.
